Numbers sourced from PubChem BioAssay AID1159580.

Experimental Protocol: chemical genetic growth profiling, strain panel (AID 1159580);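 note: tested at 20 µM; growth read once vehicle control cultures reached saturation at 30 °C; lower values mean less growth of the strain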
Condition Context: S. cerevisiae deletion strains, growth OD, locus YHR030C, strain SLT2, active compounds read low
The whole screen tested about 5,500 compounds, of which about 2,000 (36%) were called active. Another 18% or so got no clear call; they are omitted. This is one part of the list.
Threshold check on normalized growth: strictly below 1 is TRUE; on or above 1 is FALSE.

O=C(CCN1CCOCC1)c1ccc2c(c1)OCCO2	TRUE
CCCCCCCC1CC/C(=C\c2ccc(/C=C3\CCC(CCCCCCC)C3=O)cc2)C1=O (configuration not stated)	FALSE
Cc1onc(-c2ccccc2Cl)c1-c1nc2ccccc2c(=O)o1	TRUE
CC12CCCC(O)(C1)C1CC(C)(C)C1CC2 (configuration not stated)	TRUE
Cc1cc(C(=O)O/N=C(/N)c2ccc(C(C)(C)C)cc2)no1	TRUE
CN1CC(=O)N2[C@H](c3ccc4c(c3)OCO4)c3[nH]c4ccccc4c3C[C@@H]2C1=O	TRUE
C/C(=N/OC(=O)c1ccc(Cl)cc1)c1ccc(F)cc1	TRUE
CCc1cc2c(cc1-c1csc(C/C(N)=N\O)n1)C(C)(C)CCC2(C)C	TRUE
O=C1/C(=C/c2c(F)cccc2Cl)Cc2ccccc21	TRUE
O=C1c2cccc3c(SCCO)ccc(c23)C(=O)N1CCc1ccccn1	TRUE

Proceed to the following item.
Inquiry: Is it true that normalized growth reported for Cc1cc(C(=O)O/N=C(/N)c2ccc([N+](=O)[O-])o2)no1 is less than 1?
Reply text: TRUE
